B1: Osa-1-4 twister ribozyme (parent)
chain: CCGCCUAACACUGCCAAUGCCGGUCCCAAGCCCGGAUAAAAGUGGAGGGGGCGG

Variants of: B1
EXPERIMENTAL_PROTOCOL: self-cleavage, relative activity (ratio to wild type); higher = more cleavage; co-transcriptional
Give label 1 when the value for self-cleavage is at least 0.08. Give label 0 when it is less.

Asked: Would you say C26A shows self-cleavage at minimum 0.08?
Given back: label 0

Asked: Would you say A41C A7U shows self-cleavage at minimum 0.08?
Given back: label 1

Asked: Would you say C21G U12G shows self-cleavage at minimum 0.08?
Given back: label 0

Asked: Would you say C33G G34C shows self-cleavage at minimum 0.08?
Given back: label 0

Asked: Would you say G44C G51A shows self-cleavage at minimum 0.08?
Given back: label 1

Asked: Would you say C27G G35A shows self-cleavage at minimum 0.08?
Given back: label 1

Asked: Would you say A28C U37A shows self-cleavage at minimum 0.08?
Given back: label 1

Asked: Would you say G13C U37G shows self-cleavage at minimum 0.08?
Given back: label 0

Asked: Would you say A46G A8C shows self-cleavage at minimum 0.08?
Given back: label 0
